TEST TARGET: T1, MDMX (In-house, 40 kD) (UniProt O15151 1-134, limits assumed)
T1 construct: Construct used in the FP assays is described only as in-house, 40 kD; also called MDM4
T1 sequence (looked up): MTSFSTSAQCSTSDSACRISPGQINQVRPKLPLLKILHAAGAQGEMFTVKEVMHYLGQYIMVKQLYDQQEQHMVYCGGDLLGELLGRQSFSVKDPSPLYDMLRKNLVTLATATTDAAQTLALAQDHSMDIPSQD
METHOD SUMMARY: competitive fluorescence polarization, Ki (MDMX)
Bridge positions count the residues as written; N and C are the ends. Square brackets hold non-standard residues; d marks the D form. $4rn6 = Alpha-Me R-azide 1,4 triazole (6 carbon), forms a triazole cross-link with a second residue in the same molecule; $4a5 = Alpha-Me alkyne 1,4 triazole (5 carbon), forms a triazole cross-link with a second residue in the same molecule; $5rn6 = Alpha-Me R-azide 1,5 triazole (6 carbon); $5a5 = Alpha-Me alkyne 1,5 triazole (5 carbon); Cba = N[C@@H](CC1CCC1)C(=O)O

BINDER	Ki
Ac-LTA[$5rn6]EYWAQ[Cba][$5a5]SAA-NH2 (triazole 4-11, also called Ac-LTA$5rn6EYWAQCba$5a5SAA-NH2) [SP-459]	> 1000 nM
Ac-LTA[$4rn6]EYWAQ[Cba][$4a5]SAA-NH2 (triazole 4-11, also called Ac-LTA$4rn6EYWAQCba$4a5SAA-NH2) [SP-460]	> 1000 nM
